tested on: Leishmania mexicana; test: Inhibition of Leishmania mexicana GAPDH(glyceraldehyde-3-phosphate dehydrogenase); design: concentration or dose not given beside the values; details: concentration not given here
The label depends only on inhibition: satisfied if it is at least 80%, not satisfied if it is smaller.

[[record]]
compound = "OC[C@H]1OC(n2c(-c3cccs3)nc3c(NCc4ccccc4)ncnc32)[C@H](O)[C@@H]1O (some centres not stated)"
classlabel = "satisfied"

[[record]]
compound = "NC(=O)CCC(=O)NC[C@H]1OC(n2cnc3c(NCc4ccccc4)ncnc32)[C@H](O)[C@@H]1O (some centres not stated)"
classlabel = "not satisfied"

[[record]]
compound = "O=C(CC1CCCCC1)NC[C@H]1OC(n2cnc3c(NCc4ccccc4)ncnc32)[C@H](O)[C@@H]1O (some centres not stated)"
classlabel = "not satisfied"

[[record]]
compound = "O=C(Cc1ccccc1)NC[C@H]1OC(n2cnc3c(NCc4ccccc4)ncnc32)[C@H](O)[C@@H]1O (some centres not stated)"
classlabel = "not satisfied"

[[record]]
compound = "Nc1ncnc2c1nc(NCc1ccccc1)n2[C@@H]1O[C@H](CO)[C@@H](O)[C@H]1O"
classlabel = "satisfied"

[[record]]
compound = "COc1cccc(C(=O)N[C@@H]2[C@H](O)[C@@H](COC(=O)c3ccccc3C(=O)O)O[C@H]2n2cnc3c(NCc4ccccc4)ncnc32)c1"
classlabel = "satisfied"

[[record]]
compound = "Cc1ccccc1CNc1ncnc2c1nc(-c1cccs1)n2C1O[C@H](CO)[C@@H](O)[C@H]1O (some centres not stated)"
classlabel = "satisfied"

[[record]]
compound = "CN(C)c1nc2c(N)ncnc2n1C1O[C@H](CO)[C@@H](O)[C@H]1O (some centres not stated)"
classlabel = "not satisfied"

[[record]]
compound = "Nc1ncnc2c1ncn2C1O[C@H](COC(=O)CCC(=O)O)[C@@H](O)[C@H]1O (some centres not stated)"
classlabel = "satisfied"

[[record]]
compound = "Nc1ncnc2c1nc(N1CCCCC1)n2[C@@H]1O[C@H](CO)[C@@H](O)[C@H]1O"
classlabel = "satisfied"

[[record]]
compound = "Nc1ncnc2c1ncn2C1O[C@H](COC(=O)c2ccc3ccccc3c2)[C@@H](O)[C@H]1O (some centres not stated)"
classlabel = "satisfied"

[[record]]
compound = "Nc1ncnc2c1nc(N1CCCC1)n2C1O[C@H](CO)[C@@H](O)[C@H]1O (some centres not stated)"
classlabel = "satisfied"

[[record]]
compound = "O=C(NC[C@H]1OC(n2cnc3c(NCc4ccccc4)ncnc32)[C@H](O)[C@@H]1O)c1cc(O)cc(O)c1 (some centres not stated)"
classlabel = "satisfied"

[[record]]
compound = "CC(C)=CCNc1ncnc2c1ncn2[C@@H]1O[C@H](CO)[C@@H](O)[C@H]1O"
classlabel = "satisfied"

[[record]]
compound = "Nc1ncnc2c1ncn2[C@@H]1O[C@H](COC(=O)c2ccccc2)[C@@H](O)[C@H]1O"
classlabel = "not satisfied"

